- SYSTEM: T1, human GIP receptor (human) (UniProt P48546)
- T1 sequence (looked up): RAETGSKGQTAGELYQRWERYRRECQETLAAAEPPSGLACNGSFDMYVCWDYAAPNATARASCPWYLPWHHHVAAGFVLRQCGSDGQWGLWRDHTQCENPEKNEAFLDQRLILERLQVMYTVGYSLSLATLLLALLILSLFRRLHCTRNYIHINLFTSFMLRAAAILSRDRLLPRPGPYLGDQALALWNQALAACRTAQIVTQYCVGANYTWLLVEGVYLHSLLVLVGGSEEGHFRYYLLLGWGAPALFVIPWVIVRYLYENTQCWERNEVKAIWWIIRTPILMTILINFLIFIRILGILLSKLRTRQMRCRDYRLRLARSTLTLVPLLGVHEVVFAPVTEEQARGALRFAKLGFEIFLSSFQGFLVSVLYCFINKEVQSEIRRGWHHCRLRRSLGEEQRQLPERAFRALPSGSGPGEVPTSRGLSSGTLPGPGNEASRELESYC
- TEST_METHOD_NOTES: cell-based or functional assay
Starred links: 1 amine or outer side, 2 acyl side, 3 side chain; linkers in the order of their positions; H or OH if unused. Non-standard residues stand in square brackets, D forms with d. Groups on a side chain read outwards from the residue. No end group written: not given here. *: point of attachment. C20 diacid = O=C(O)CCCCCCCCCCCCCCCCCCC(=O)*; Phe(4-CN) = N#Cc1ccc(C[C@H](N)C(=O)O)cc1; αMePhe(2-F) = C[C@](N)(Cc1ccccc1F)C(=O)O; γGlu = O=C(O)[C@H](CCC(=O)[*:2])N[*:1]; αMeL = CC(C)C[C@](C)(N)C(=O)O; AEEA = NCCOCCOCC(=O)O; Aib = CC(C)(N)C(=O)O
Output label 1 for Relative cAMP EC50 not less than 0.07 nM; output label 0 otherwise.

BINDER	LABEL
YXQGTFTSDFSXXLDKKAQXAFIEYLLEAGPSSGHPPPSGX (synthetic construct; SITE 2: note = 2-Aminoisobutyric Acid; SITE 12: note = L-ornithine; SITE 13: note = alpha-methyl-leucine; SITE 17: note = Lysine is chemically modified through conjugation of the epsilon-amino group of the Lysine side chain with (2-[2-(2-Amino-ethoxy)-ethoxy]-acetyl)2-(gamma-Glu)) [Example 256]	label 1
YXQGTFTSDFSKXLDKKAQXAFIEYLLAGGPSSGEPPPSSE (Aib, αMeL; acylated Lys; C-terminal amide; synthetic construct; SITE 2: note = 2-Aminoisobutyric Acid; SITE 13: note = alpha-methyl-leucine; SITE 17: note = Lysine is chemically modified through conjugation of the epsilon-amino group of the Lysine side chain with (2-[2-(2-Amino-ethoxy)-ethoxy]-acetyl)-(gamma-Glu)-CO-(CH2) 18-CO2H; SITE 20: n) [Example 3]	label 1
YXQGTFTSDFSRXLDKKAQXAFIEYLLEGGPSSGAPPPSGS (synthetic construct; SITE 2: note = 2-Aminoisobutyric Acid; SITE 13: note = alpha-methyl-leucine; SITE 17: note = Lysine is chemically modified through conjugation of the epsilon-amino group of the Lysine side chain with (2-[2-(2-Amino-ethoxy)-ethoxy]-acetyl)2-(gamma-Glu)-CO-(CH2 )16-CO2H; SITE 20:) [Example 144]	label 1
YXQGTXTSDXXIXLDXKAQXEFIEXLIEGGPSSGEPPPEGTGE (synthetic construct; SITE 2: note = 2-Aminoisobutyric Acid; SITE 6: note = alpha-methyl-2-fluoro-L-phenylalanine; SITE 10: note = 3-(4-Pyridyl)-L-alanine; SITE 11: note = alpha-methyl-L-serine; SITE 13: note = alpha-methyl-leucine; SITE 16: note = L-ornithine; SITE 17: note = Lysine is chemically mo) [Example 763]	label 0
YXQGTXTSDXXIXLDXKAQXEFIEXLIEGGPPSXEPPPSGGGE (non-natural residues; acylated Lys; C-terminal amide; synthetic construct; SITE 2: note = 2-Aminoisobutyric Acid; SITE 6: note = alpha-methyl-2-fluoro-L-phenylalanine; SITE 10: note = 3-(4-Pyridyl)-L-alanine; SITE 11: note = alpha-methyl-L-serine; SITE 13: note = alpha-methyl-leucine; SITE 16: note = L-ornithine; SITE 17: note = Lysine is chemically mo) [Example 1201]	label 0
YXQGTFTSDXSXXLDKKAQXAFIEYLIEXGESSGAPPPSGS (Aib, 4Pal, Orn, αMeL, αMe4Pal, acylated Lys, amide; synthetic construct; SITE 2: note = 2-Aminoisobutyric Acid; SITE 10: note = 3-(4-Pyridyl)-L-alanine; SITE 12: note = L-ornithine; SITE 13: note = alpha-methyl-leucine; SITE 17: note = Lysine is chemically modified through conjugation of the epsilon-amino group of the Lysine side chain with (2-[2-(2-) [Example 223]	label 1
YXQGTFTSDXSQXLDXKAQXAFIEXLIAXGPSSGEPPPSGSEE (non-natural residues (Aib, 4Pal, Orn, Me4Pal, αMeY); lipidated K; amide; synthetic construct; SITE 2: note = 2-Aminoisobutyric Acid; SITE 10: note = 3-(4-Pyridyl)-L-alanine; SITE 13: note = alpha-methyl-leucine; SITE 16: note = L-ornithine; SITE 17: note = Lysine is chemically modified through conjugation of the epsilon-amino group of the Lysine side chain with (gamma-Gl)) [Example 1094]	label 0
YXQGTFTSDFSKXLDKKAQXAFIEYLIEXSPSSGAPPPSGS (synthetic construct; SITE 2: note = 2-Aminoisobutyric Acid; SITE 13: note = alpha-methyl-leucine; SITE 17: note = Lysine is chemically modified through conjugation of the epsilon-amino group of the Lysine side chain with (2-[2-(2-Amino-ethoxy)-ethoxy]-acetyl)-(gamma-Glu)-CO-(CH2) 16-CO2H; SITE 20: n) [Example 805]	label 1
Y[Aib]QGT[αMePhe(2-F)]TSD[Phe(4-CN)]SILLDKQAQKAFIEYLLEGGPSSGEPPPSEG-NH2 (not fully specified (residue 20)) [Example 352]	label 1
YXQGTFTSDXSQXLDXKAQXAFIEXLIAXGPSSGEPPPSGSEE (non-natural residues, AEEA-γGlu-diacid acylated Lys, C-terminal amide; synthetic construct; SITE 2: note = 2-Aminoisobutyric Acid; SITE 10: note = 3-(4-Pyridyl)-L-alanine; SITE 13: note = alpha-methyl-leucine; SITE 16: note = L-ornithine; SITE 17: note = Lysine is chemically modified through conjugation of the epsilon-amino group of the Lysine side chain with (2-[2-(2-) [Example 1099]	label 1
YXQGTXTSDXXIXLDXKAQXEFIEXLIEGGPSSGAPPPGGE (non-natural residues; K acylated AEEA-γGlu-C18 diacid; C-amide; synthetic construct; SITE 2: note = 2-Aminoisobutyric Acid; SITE 6: note = alpha-methyl-2-fluoro-L-phenylalanine; SITE 10: note = 3-(4-Pyridyl)-L-alanine; SITE 11: note = alpha-methyl-L-serine; SITE 13: note = alpha-methyl-leucine; SITE 16: note = L-ornithine; SITE 17: note = Lysine is chemically mo) [Example 1144]	label 0
YXQGTFTSDFSXXLDKKAQXAFIEWLLEGGHSSGEPPPEGS (synthetic construct; SITE 2: note = 2-Aminoisobutyric Acid; SITE 12: note = L-ornithine; SITE 13: note = alpha-methyl-leucine; SITE 17: note = Lysine is chemically modified through conjugation of the epsilon-amino group of the Lysine side chain with (2-[2-(2-Amino-ethoxy)-ethoxy]-acetyl)-(gamma-Glu)) [Example 127]	label 1
YXQGTFTSDFSXXLDKKAQXAFIEWLLEGGSSSGAPPPSGH (synthetic construct; SITE 2: note = 2-Aminoisobutyric Acid; SITE 12: note = L-ornithine; SITE 13: note = alpha-methyl-leucine; SITE 17: note = Lysine is chemically modified through conjugation of the epsilon-amino group of the Lysine side chain with (2-[2-(2-Amino-ethoxy)-ethoxy]-acetyl)-(gamma-Glu)) [Example 270]	label 1
YXQGTXTSDXXIXLDXKAQXXFIEXLQEGGPSSGEPPPEGTE (synthetic construct; SITE 2: note = 2-Aminoisobutyric Acid; SITE 6: note = alpha-methyl-2-fluoro-L-phenylalanine; SITE 10: note = 3-(4-Pyridyl)-L-alanine; SITE 11: note = alpha-methyl-L-serine; SITE 13: note = alpha-methyl-leucine; SITE 16: note = L-ornithine; SITE 17: note = Lysine is chemically mo) [Example 503]	label 0
YXQGTXTSDXXIXLDXQAQXEFIEXLIEGGPSSGAPPPSGSE (not fully specified; synthetic construct; SITE 2: note = 2-Aminoisobutyric Acid; SITE 6: note = alpha-methyl-2-fluoro-L-phenylalanine; SITE 10: note = 3-(4-Pyridyl)-L-alanine; SITE 11: note = alpha-methyl-L-serine; SITE 13: note = alpha-methyl-leucine; SITE 16: note = L-ornithine; SITE 20: note = 3-(4-Pyridyl)-L-alanine) [Example 1233]	label 0
YXQGTFTSDFSXXLDKKAQXAFIEYLLAGGPSSGEPPPSEG (Aib, Orn, alpha-methyl-Leu, acylated Lys, C-terminal amide; synthetic construct; SITE 2: note = 2-Aminoisobutyric Acid; SITE 12: note = L-ornithine; SITE 13: note = alpha-methyl-leucine; SITE 17: note = Lysine is chemically modified through conjugation of the epsilon-amino group of the Lysine side chain with (2-[2-(2-Amino-ethoxy)-ethoxy]-acetyl)-(gamma-Glu)) [Example 29]	label 1
YXQGTXTSDYXIXLDXKAQXAFIEYLLEGGPSSGEPPPE (synthetic construct; SITE 2: note = 2-Aminoisobutyric Acid; SITE 6: note = alpha-methyl-L-phenylalanine; SITE 11: note = alpha-methyl-L-serine; SITE 13: note = alpha-methyl-leucine; SITE 16: note = L-ornithine; SITE 17: note = Lysine is chemically modified through conjugation of the epsilon-amino gr) [Example 420]	label 0
YXQGTFTSDXSXXLDKKAQXAFIEYLLEAGPSSXAPPPSGT (synthetic construct; SITE 2: note = 2-Aminoisobutyric Acid; SITE 10: note = 3-(4-Pyridyl)-L-alanine; SITE 12: note = L-ornithine; SITE 13: note = alpha-methyl-leucine; SITE 17: note = Lysine is chemically modified through conjugation of the epsilon-amino group of the Lysine side chain with (2-[2-(2-) [Example 275]	label 1
YXQGTFTSDXSXXLDKKAQXAFIEYLIAGGPSSGEPPPSGTEEE (synthetic construct; SITE 2: note = 2-Aminoisobutyric Acid; SITE 10: note = 3-(4-Pyridyl)-L-alanine; SITE 12: note = L-ornithine; SITE 13: note = alpha-methyl-leucine; SITE 17: note = Lysine is chemically modified through conjugation of the epsilon-amino group of the Lysine side chain with (gamma-Gl)) [Example 982]	label 1
Y[Aib]QGTFTSDYSI[αMeL]LDKIAAK([AEEA-AEEA-γGlu-C20 diacid])QFVEYLIAGGPSSGEPPPSEG-NH2 [Example 312]	label 1
Y[Aib]QGT[αMePhe(2-F)]TSDYSILLDKQAAKEFIEYLIEGGPSSGEPPPSEG-NH2 (not fully specified (residue 20)) [Example 348]	label 1
YXQGTFTSDFSRXLDKKAQXAFIEYLLEXGPSSGAPPPSGS (synthetic construct; SITE 2: note = 2-Aminoisobutyric Acid; SITE 13: note = alpha-methyl-leucine; SITE 17: note = Lysine is chemically modified through conjugation of the epsilon-amino group of the Lysine side chain with (2-[2-(2-Amino-ethoxy)-ethoxy]-acetyl)2-(gamma-Glu)-CO-(CH2 )16-CO2H; SITE 20:) [Example 80]	label 0
